Target: CIC-1 ion channel (Rattus norvegicus)
Sequence (P35524 whole entry): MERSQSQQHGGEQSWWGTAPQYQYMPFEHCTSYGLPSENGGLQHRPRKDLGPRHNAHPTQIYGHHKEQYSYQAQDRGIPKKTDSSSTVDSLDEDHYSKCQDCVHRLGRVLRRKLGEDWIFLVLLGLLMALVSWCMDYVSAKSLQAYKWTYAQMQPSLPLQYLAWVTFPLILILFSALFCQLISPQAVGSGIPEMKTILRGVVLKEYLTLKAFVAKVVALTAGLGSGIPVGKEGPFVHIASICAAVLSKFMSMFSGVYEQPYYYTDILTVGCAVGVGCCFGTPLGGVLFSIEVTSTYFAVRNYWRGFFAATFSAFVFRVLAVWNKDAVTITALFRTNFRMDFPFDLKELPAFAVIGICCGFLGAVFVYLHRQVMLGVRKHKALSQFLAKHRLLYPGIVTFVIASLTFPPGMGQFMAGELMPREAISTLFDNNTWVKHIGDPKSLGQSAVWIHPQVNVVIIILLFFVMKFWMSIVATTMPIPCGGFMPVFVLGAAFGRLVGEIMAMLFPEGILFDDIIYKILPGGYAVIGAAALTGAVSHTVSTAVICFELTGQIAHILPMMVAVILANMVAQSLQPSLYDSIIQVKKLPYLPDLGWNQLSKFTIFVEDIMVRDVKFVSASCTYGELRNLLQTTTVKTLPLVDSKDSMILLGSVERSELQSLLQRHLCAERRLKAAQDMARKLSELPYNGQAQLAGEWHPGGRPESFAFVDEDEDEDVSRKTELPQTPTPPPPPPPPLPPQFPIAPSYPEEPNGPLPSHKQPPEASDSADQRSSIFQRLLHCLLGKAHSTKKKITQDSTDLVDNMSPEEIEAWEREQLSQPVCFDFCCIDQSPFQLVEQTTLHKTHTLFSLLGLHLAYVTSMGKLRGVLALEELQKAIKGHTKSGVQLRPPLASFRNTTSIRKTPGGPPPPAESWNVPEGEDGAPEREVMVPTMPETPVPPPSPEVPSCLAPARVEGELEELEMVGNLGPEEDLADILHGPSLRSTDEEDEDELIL
Test: Electrophysiological measurement (Gm, three micro-electrode technique) of compound inhibition of CIC-1 in rat soleus muscle fibres
Conditions: whole rat soleus muscle, Gm at four increasing concentrations, approx. 30° C., mean ± spread
quantity: pEC50
Please keep in mind that pEC50 is minus log10 of the molar concentration; only the number is needed.

-- ask What value of measured pEC50 is listed for C#Cc1ccc(O[C@@H](C)C(=O)O)c(C(F)(F)CC)c1 [Compound A-23] ?
-- reply 5.21

-- ask What value of pEC50 has been reported for the following compound? CCC(F)(F)c1cc(Br)ccc1O[C@@H](C)C(=O)O [Compound A-3]
-- reply 5.46

-- ask Can you look up the measured pEC50 of C#CC[C@H](Oc1ccc(Br)cc1C(F)(F)CC)C(=O)O [Compound A-18] for me?
-- reply 5.32
